Origin of measurements: paper PMC10442743

# System: MCF-7
# ASSAY_METHOD_TEXT: MTT cytotoxicity assay, MCF-7 cells
# Format: cell-based, human
# CONDITION_SET: 24 h exposure, MTT; read-out: IC50 (µM) (average ± standard deviation) 24 h MCF-7
PARAMETER_MEASURED: IC50 (µM)
Give the value in µM but do not write µM after it.

Ask | Write down IC50 measured for item Cc1ccc(CCC(=O)O)cc1.O=C1[O][Ru]([PH]23CN4CN(CN(C4)C2)C3)[O]C1=O
Reply | 213

Ask | Write down IC50 measured for item Cc1ccc(C(C)C)cc1.O=C1[O][Ru]([PH]23CN4CN(CN(C4)C2)C3)[O]C1=O
Reply | 407

Ask | Write down IC50 measured for item C[NH+](C)Cc1ccccc1.[Cl-].[Cl][Ru]([Cl])[PH]12CN3CN(CN(C3)C1)C2
Reply | 463

Ask | Write down IC50 measured for item Cc1cccc[c]1[Ru+]([Cl])([PH]12CN3CN(CN(C3)C1)C2)[PH](c1ccccc1)(c1ccccc1)c1ccccc1.F[P-](F)(F)(F)(F)F (stereo not drawn)
Reply | 128

Ask | Write down IC50 measured for item Cc1cccc[c]1[Ru+]([Cl])([PH](c1ccccc1)(c1ccccc1)c1ccccc1)[PH](c1ccccc1)(c1ccccc1)c1ccccc1.[F][Sb-]([F])([F])([F])([F])[F]
Reply | 11

Ask | Write down IC50 measured for item Cc1cccc[c]1[Ru+]([Cl])([PH](c1ccccc1)(c1ccccc1)c1ccccc1)[PH](c1ccccc1)(c1ccccc1)c1ccccc1.F[P-](F)(F)(F)(F)F
Reply | 3
